Experimental Target: ZFP SBS#1312 (synthetic, UniProt P08047)
Sequence (P08047 other isoform, or with tags, fused parts or gaps): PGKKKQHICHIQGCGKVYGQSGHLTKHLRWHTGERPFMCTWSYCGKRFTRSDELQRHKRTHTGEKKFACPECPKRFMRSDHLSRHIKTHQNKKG
Test Method Notes: EMSA
Run Conditions: tags: MBP fusion
Readout Kind: Kd (nM)
Reply numerically in nM, unit not repeated.

Would you mind telling me what Kd value was observed for GGGGCGTGA (dsDNA) DNA 1: GGGGCGTGA DNA 2: TCACGCCCC ?
0.23
